Cited source for all entries: patent US20080021026A1

# system-tested: recombinant N-terminal GST-tagged human Rho kinase 2 (ROCK2, amino acids 1-552) (Homo sapiens)
# Construct: ROCK2, amino acids 1-552; purchased Invitrogen Inc. PV3759
# experiment-description: In vitro Rho kinase assay (luciferase-based ATP consumption), ROCK2
# Assay type: biochemical
# recorded-conditions: recombinant GST-tagged human ROCK2, luciferase-based ATP consumption; read-out: ROCK2 IC50
# Description: In Vitro Rho Kinase Assay Rho kinase biochemical assays described below depend on firefly luciferase-based, indirect measurement of total ATP consumption by the kinase following incubation with substrate and ATP. […] After an additional 10 minute incubation at room temperature (about 22° C.), luminescence activity is measured on a Molecular Devices Analyst multi-mode plate reader or other suitable plate reader. […] Negative control activity is measured with DMSO lacking any test compound. […]
pIC50: −log10 of the molar value.
Recorded pIC50 by entry

Cc1c(-c2ccnc(N)n2)sc2ccc(CNC(=O)c3cc(F)ccc3[N+](=O)[O-])cc12: > 5.30
Cc1c(-c2ccnc(N)n2)sc2ccc(C(=O)N(C)C[C@H](O)c3ccc(O)c(O)c3)cc12: > 5.30
Cc1c(-c2ccnc(N)n2)sc2ccc(CNC(=O)c3cc(Cl)ccc3[N+](=O)[O-])cc12: > 5.30

-- ask Given the entry Cc1c(-c2ccnc(N)n2)sc2ccc(C(=O)NC(C)CCCC(C)C)cc12 (stereo not drawn) , report its measured pIC50.
-- reply < 5.30

-- ask Given the entry "Cc1c(-c2ccnc(N)n2)sc2ccc(C(=O)NCc3ccc(F)cc3)cc12" , report its measured pIC50.
-- reply > 5.30

-- ask Given the entry "Cc1c(-c2ccnc(N)n2)sc2ccc(C(=O)NN3CCN(C)CC3)cc12" , report its measured pIC50.
-- reply > 5.30

====

Recorded pIC50 by entry
# system-tested: recombinant N-terminal GST-tagged human Rho kinase 2 (ROCK2, amino acids 1-552) (Homo sapiens, UniProt O75116)
# Construct: ROCK2, amino acids 1-552; purchased Invitrogen Inc. PV3759
# Sequence (O75116 1-552): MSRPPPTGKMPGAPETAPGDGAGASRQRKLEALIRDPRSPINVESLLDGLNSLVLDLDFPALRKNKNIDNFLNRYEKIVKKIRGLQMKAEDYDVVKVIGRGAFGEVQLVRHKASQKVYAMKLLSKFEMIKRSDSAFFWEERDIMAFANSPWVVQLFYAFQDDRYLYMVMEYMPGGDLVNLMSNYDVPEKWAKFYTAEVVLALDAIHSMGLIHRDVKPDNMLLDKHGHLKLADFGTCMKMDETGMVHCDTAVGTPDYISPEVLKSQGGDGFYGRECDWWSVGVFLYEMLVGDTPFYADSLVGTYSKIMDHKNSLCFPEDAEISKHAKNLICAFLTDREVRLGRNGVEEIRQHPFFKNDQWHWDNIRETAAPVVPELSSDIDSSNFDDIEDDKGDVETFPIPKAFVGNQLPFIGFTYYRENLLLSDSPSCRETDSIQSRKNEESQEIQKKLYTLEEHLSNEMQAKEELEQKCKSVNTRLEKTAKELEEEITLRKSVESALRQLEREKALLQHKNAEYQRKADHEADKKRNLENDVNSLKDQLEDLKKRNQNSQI
# experiment-description: In vitro Rho kinase assay (luciferase-based ATP consumption), ROCK2
# Assay type: biochemical
# recorded-conditions: recombinant GST-tagged human ROCK2, luciferase-based ATP consumption; read-out: ROCK2 IC50
pIC50: −log10 of the molar value.

Consider the worked cases shown below.
Cc1c(-c2ccnc(N)n2)sc2ccc(C(=O)N[C@@H](C)c3ccccc3)cc12: > 5.30
Cc1c(-c2ccnc(N)n2)sc2ccc(CNC(=O)Cc3cccc(O)c3)cc12: > 5.30

-- ask Given the entry Cc1c(-c2ccnc(N)n2)sc2ccc(CNC(=O)CC(C)CC(C)(C)C)cc12 (stereo not drawn) , report its measured pIC50.
-- reply < 5.30

====

# system-tested: recombinant N-terminal GST-tagged human Rho kinase 2 (ROCK2, amino acids 1-552) (Homo sapiens, UniProt O75116)
# Construct: ROCK2, amino acids 1-552; purchased Invitrogen Inc. PV3759
# experiment-description: In vitro Rho kinase assay (luciferase-based ATP consumption), ROCK2
# Type: biochemical
# recorded-conditions: recombinant GST-tagged human ROCK2, luciferase-based ATP consumption; read-out: ROCK2 IC50
pIC50: −log10 of the molar value.
metric: pIC50

Consider the worked cases shown below.
Cc1c(-c2ccnc(N)n2)sc2ccc(Cl)cc12: > 5.30
Cc1c(-c2ccnc(N)n2)sc2ccc(CNC(=O)c3ccncc3)cc12: > 5.30
Cc1c(-c2ccnc(N)n2)sc2ccc(C(=O)N3CCN(c4ccccc4F)CC3)cc12: < 5.30
Cc1ccc(S(=O)(=O)NCCNC(=O)c2ccc3sc(-c4ccnc(N)n4)c(C)c3c2)cc1: > 5.30
CC(=O)c1ccc(N2CCN(C(=O)c3ccc4sc(-c5ccnc(N)n5)c(C)c4c3)CC2)cc1: < 5.30
COc1ccc(CNC(=O)c2ccc3sc(-c4ccnc(N)n4)c(C)c3c2)cc1: > 5.30

-- ask Given the entry "COc1ccc(OC)c(C(=O)NCc2ccc3sc(-c4ccnc(N)n4)c(C)c3c2)c1" , report its measured pIC50.
-- reply > 5.30

-- ask Given the entry "Cc1c(-c2ccnc(N)n2)sc2ccc(CNC(=O)c3cccc(Oc4ccccc4)c3)cc12" , report its measured pIC50.
-- reply < 5.30

-- ask Given the entry "Cc1c(-c2ccnc(N)n2)sc2ccc(C(=O)NCc3cccc(C(F)(F)F)c3)cc12" , report its measured pIC50.
-- reply > 5.30

-- ask Given the entry "COc1ccc(C=CC(=O)NCc2ccc3sc(-c4ccnc(N)n4)c(C)c3c2)cc1O" , report its measured pIC50.
-- reply > 5.30

-- ask Given the entry "Cc1c(-c2ccnc(N)n2)sc2ccc(C(=O)NCc3ccc(Cl)c(Cl)c3)cc12" , report its measured pIC50.
-- reply < 5.30
